Ref: paper PMC10424182

Please respond with reported Ki for every item in the list.
# subjectOfTest: PSP brain homogenates (4R-tau aggregates) (Homo sapiens, UniProt P10636)
# Sequence (P10636 1-441 isoform P10636-8): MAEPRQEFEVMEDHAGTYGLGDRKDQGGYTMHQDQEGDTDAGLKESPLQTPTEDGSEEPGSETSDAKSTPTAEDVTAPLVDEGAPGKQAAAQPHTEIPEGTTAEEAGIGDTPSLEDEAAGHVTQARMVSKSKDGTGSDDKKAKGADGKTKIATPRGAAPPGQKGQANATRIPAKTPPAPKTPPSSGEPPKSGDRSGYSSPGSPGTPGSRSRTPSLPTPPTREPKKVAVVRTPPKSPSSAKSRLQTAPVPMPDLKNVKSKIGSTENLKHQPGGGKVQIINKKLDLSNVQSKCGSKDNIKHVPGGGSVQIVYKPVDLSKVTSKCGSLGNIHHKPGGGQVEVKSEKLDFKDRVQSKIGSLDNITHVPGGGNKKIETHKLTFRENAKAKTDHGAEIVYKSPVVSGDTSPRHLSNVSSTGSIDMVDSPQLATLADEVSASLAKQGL
# protocol: Competition
# Assay type: binding
Quick note: give the figure in nM, leave out the unit.

Recorded Ki for Fc1cc(-c2ccc3c(n2)[nH]c2ccncc23)ccn1 , please?
89

Recorded Ki for O[C@@H]1CCN(c2ccc(-c3cc4ccc(F)cc4[nH]3)cn2)C1 , please?
18

Recorded Ki for Nc1c(F)ccc2cnc(-n3ccc4ccncc43)cc12 , please?
315

* * *

# subjectOfTest: CBD brain homogenates (4R-tau aggregates) (Homo sapiens)
# protocol: Competition
# Assay type: binding
Please respond with reported Ki for every item in the list.
Quick note: give the figure in nM, leave out the unit.

Recorded Ki for Fc1ccc2cc(-c3cnc(N4CCOCC4)nc3)[nH]c2c1 , please?
110

Recorded Ki for OC1CCN(c2ncc(-c3cc4ccc(F)cc4[nH]3)cn2)CC1 , please?
71
